Data origin: patent US20190060428A1

# TEST DESCRIPTION: physchem
# CONDITION CONTEXT: pH 6

SMILES DATA	solubility
CC(C)C[C@H](NC(=O)[C@H](C)N)C(=O)N[C@@H](CCC(=O)O)C(=O)N[C@@H](CCC(=O)O)C(=O)N[C@@H](CCCCN)C(=O)N[C@@H](CCCCN)C(=O)NCC(=O)N[C@@H](CC(N)=O)C(=O)N[C@@H](Cc1ccc(O)cc1)C(=O)N[C@H](C(=O)N[C@H](C(=O)N[C@H](C(=O)N[C@@H](CC(=O)O)C(=O)N[C@@H](Cc1c[nH]cn1)C(=O)NCC(=O)N[C@@H](CO)C(=O)N[C@@H](CS)C(=O)N[C@H](C(=O)O)C(C)C)[C@@H](C)O)C(C)C)C(C)C	> 2000 µg/mL
